# assay-overview: pH solubility in pH 1.0-8.0 buffers at RT
# Assay type: physicochemical
# assay-setup: pH 4.5 buffer, pH 4.5, aqueous buffer, thermodynamic from solid, 2 Hours, LOQ = 0.0001 mg/mL
Where a name gives a salt, the structure may show the parent alone.
parameter: solubility at 2 h (µg/mL)
Numbers only here, please. The scale is µg/mL.

So what's the measured solubility at 2 h for this one? N#Cc1ccc(COc2cccc(C3CCN(Cc4nc5ccc(C(=O)O)cc5n4Cc4cncs4)CC3)n2)c(F)c1 [Meglumine salt Type A]
3.7

---

# assay-overview: physchem
parameter: logP
Lab note: record just the number, no unit beside it.

So what's the measured logP for this one? N#Cc1ccc(COc2cccc(C3CCN(Cc4nc5ccc(C(=O)O)cc5n4Cc4cncs4)CC3)n2)c(F)c1 [Freeform Type A]
4.78

---

# assay-overview: Kinetic solubility in water and bio-relevant media (SGF, FaSSIF, FeSSIF) at 37° C.
# Format: physicochemical
# assay-setup: SGF, 37° C., 2 hrs; residual solids by XRPD
Counter-ions that a name gives are not always drawn.
parameter: FC: Form change

Reference set, count: 4
INSERT INTO measurements (molecule, result) VALUES
  ('N#Cc1ccc(COc2cccc(C3CCN(Cc4nc5ccc(C(=O)O)cc5n4Cc4cncs4)CC3)n2)c(F)c1 [Freeform Type C]', 'No'),
  ('N#Cc1ccc(COc2cccc(C3CCN(Cc4nc5ccc(C(=O)O)cc5n4Cc4cncs4)CC3)n2)c(F)c1 [Potassium salt Type A]', 'Yes'),
  ('N#Cc1ccc(COc2cccc(C3CCN(Cc4nc5ccc(C(=O)O)cc5n4Cc4cncs4)CC3)n2)c(F)c1 [Meglumine salt Type A]', 'Yes'),
  ('N#Cc1ccc(COc2cccc(C3CCN(Cc4nc5ccc(C(=O)O)cc5n4Cc4cncs4)CC3)n2)c(F)c1 [Fumarate Type A]', 'No');

So what's the measured FC: Form change for this one? N#Cc1ccc(COc2cccc(C3CCN(Cc4nc5ccc(C(=O)O)cc5n4Cc4cncs4)CC3)n2)c(F)c1 [Tris salt Type C]
No

---

# assay-overview: Solubility of Meglumine salt Type A in SGF and FaSSIF at 37° C. with adjusting pH to that of the blank medium
# Assay type: physicochemical
# assay-setup: pH 1.8, simulated gastric fluid, thermodynamic from solid; SGF, pH adjusted to 1.8, 37° C., 1 hr; read-out: solubility in SGF
# Description: Detailed procedures are as follows. 1) Added ˜40 mg of sample into a 5-mL glass vial. Add 4 mL of medium. Adjust pH to 1.8 or 6.5 using HCl (1 M) or NaOH (1 M). 2) Rolled at 37° C. (˜25 rpm). Sample at 1, 2, 4 and 24 hrs. 3) At each time-point, sample 0.8 mL of solution or suspension into a centrifuge tube prior to centrifugation (12000 rpm, 37° C., 5 min) and filtration through 0.45 μm PTFE membrane. 4) Adjusted pH of the rest of suspension to 1.8 or 6.5 using HCl (1 M) or NaOH (1 M).
Counter-ions that a name gives are not always drawn.
parameter: solubility at 1 h (µg/mL)
Numbers only here, please. The scale is µg/mL.

So what's the measured solubility at 1 h for this one? N#Cc1ccc(COc2cccc(C3CCN(Cc4nc5ccc(C(=O)O)cc5n4Cc4cncs4)CC3)n2)c(F)c1 [Meglumine salt Type A]
730

Taken from patent US20240360122A1.
